biological target: recombinant DYRK1A kinase (Homo sapiens, UniProt Q13627); assay: DYRK1A kinase assay (Ser/Thr 18 peptide Z-lyte FRET); settings: DYRK1A kinase activity; 15 μM ATP, 4 μM Ser/Thr peptide 18, one hour at room temperature
Assay endpoint: EC50 (nM)
// return numeric value only (unit: nM, not printed)

Q: Which EC50 reading was recorded for the molecule CN1CCC(C(=O)Nc2cnc3[nH]cc(-c4ccc5ncccc5c4)c3c2)CC1 [Compound 648] ?
Result: 2

Q: Another molecule to look at: CN1CCC(NC(=O)c2cnn3ccc(-c4c[nH]c5nc(C6CCC6)ccc45)cc23)CC1 [Compound 1556]
Result: 5

Q: Another molecule to look at: COc1ccc2c(-c3ccc4ncccc4c3)c[nH]c2n1 [Compound 1698]
Result: 7

Q: Another molecule to look at: COc1ncnc2ccc(-c3c[nH]c4ncc(-c5cccnc5)cc34)cc12 [Compound 1197]
Result: 3

Q: Another molecule to look at: Cc1nc2c(F)cc(-c3c[nH]c4ncc(C(=O)NC5CCN(C)CC5)cc34)cc2n1C(C)C [Compound 451]
Result: 4

Q: Another molecule to look at: CN1CCC(C(=O)Nc2ccc3c(-c4ccc5c(c4)C(C)(C)CNC5=O)c[nH]c3n2)CC1 [Compound 1863]
Result: 5

Q: Another molecule to look at: O=C1NCc2cc(-c3c[nH]c4nc(C5CC5)ccc34)ccc21 [Compound 1522]
Result: 12

----------
target: recombinant DYRK1A kinase (Homo sapiens); experiment: DYRK1A kinase assay (Ser/Thr 18 peptide Z-lyte FRET); conditions: DYRK1A kinase activity; 15 μM ATP, 4 μM Ser/Thr peptide 18, one hour at room temperature
// boundary case: EC50 equal to 6 nM maps to False; strictly smaller maps to True

Q: Does this compound meet the criterion EC50 < 6 nM? CN1CCC(Nc2cnc3ccc(-c4c[nH]c5ncccc45)cc3n2)CC1
Result: True

Q: Another compound to look at: Cc1cn2cc(-c3c[nH]c4ncccc34)cc(F)c2n1
Result: False

Q: Another compound to look at: Cc1nc2c(F)cc(-c3c[nH]c4ncc(C5=CCN(C)CC5)cc34)cc2n1C(C)C
Result: True

Q: Another compound to look at: Cn1cc2cc(-c3c[nH]c4nc(C5CC5)ccc34)ccc2n1
Result: False

Q: Another compound to look at: CN1CCC(Oc2cnc3ccc(-c4c[nH]c5ncccc45)cc3n2)CC1
Result: True

----------
molecular target: recombinant DYRK1A kinase (Homo sapiens); assay: DYRK1A kinase assay (Ser/Thr 18 peptide Z-lyte FRET); details: DYRK1A kinase activity; 15 μM ATP, 4 μM Ser/Thr peptide 18, one hour at room temperature
pEC50: −log10 of the molar value.
Answer n if pEC50 is under 8, and y if it is 8 or more.

Q: pEC50 >= 8 for CN1CCC(C(=O)Nc2ccc3c(-c4ccnc(N5CCN(C)CC5)c4)c[nH]c3n2)CC1 ?
Result: n

Q: Another compound to look at: CN1CCN(c2ncnc3ccc(-c4c[nH]c5ncccc45)cc23)CC1
Result: y

Q: Another compound to look at: CCOc1ccc2c(-c3ccc4ncnn4c3)c[nH]c2n1
Result: n

Q: Another compound to look at: O=C1CC2(CCNCC2)Oc2cc(-c3c[nH]c4ncc(Cl)cc34)ccc21
Result: n

----------
target: recombinant DYRK1A kinase (Homo sapiens); assay: DYRK1A kinase assay (Ser/Thr 18 peptide Z-lyte FRET); conditions: DYRK1A kinase activity; 15 μM ATP, 4 μM Ser/Thr peptide 18, one hour at room temperature
Assay endpoint: EC50 (nM)
// return numeric value only (unit: nM, not printed)

Q: Which EC50 reading was recorded for the compound O=C(Nc1cccnc1)c1cnn2ccc(-c3c[nH]c4nc(CO)ccc34)cc12 ?
Result: 3

Q: Another compound to look at: Cc1nc2c(F)cc(-c3c[nH]c4ncc(-c5cccnc5)cc34)cc2n1C1CCN(C)CC1
Result: 3

Q: Another compound to look at: CN1CCN(c2ccc(NC(=O)c3cnc4[nH]cc(-c5ccc6c(c5)C(C)(C)CNC6=O)c4c3)cn2)CC1
Result: 3

Q: Another compound to look at: c1cncc(CNc2ncnc3ccc(-c4c[nH]c5ncccc45)cc23)c1
Result: 1

Q: Another compound to look at: Cc1nc2c(F)cc(-c3c[nH]c4ncccc34)cc2n1C1CCN(C)CC1
Result: 1

Q: Another compound to look at: O=C(c1cnn2ccc(-c3c[nH]c4ncccc34)cc12)N1CCN(C2CC2)CC1
Result: 7
